- measured_target: human PDHK2 (hPDHK2) (Homo sapiens (Human), UniProt Q15119)
- method_description: Inhibitory action of PDHK activity in vitro (kinase reaction, residual PDH activity measured)
- Assay type: biochemical
- stated_conditions: read-out: PDHK inhibitory activity IC50
Response field label: string, one of Condition met (IC50 strictly below 1000 nM) or Condition not met.

• CC(=O)N(C)CCOc1cc(Cl)c2c(c1)C(O)(C(F)(F)F)c1ccccc1-2 (stereo not shown) = Condition met
• COc1ccccc1-c1ccc2c(c1)C(O)(C(F)(F)F)c1ccccc1-2 (stereo not shown) = Condition not met
• OCCCCCCOc1ccc2c(c1)C(O)(C(F)(F)F)c1ccccc1-2 (stereo not shown) = Condition met
• OC1(C(F)(F)F)c2ccccc2-c2ccc(N3CCCC3)cc21 (stereo not shown) = Condition not met
• CC(C)(C)Cn1cc(-c2cccc3c2-c2ccccc2C3(O)C(F)(F)F)cn1 (stereo not shown) = Condition met
• O=C(O)C1CN(C(=O)c2ccc3c(c2)C(O)(C(F)(F)F)c2ccccc2-3)C1 (stereo not shown) = Condition not met
• COC(=O)c1cc(Cl)cc2c1-c1ccccc1C2(O)C(F)(F)F (single isomer, unassigned) [compound 617] = Condition met
• O=C(COc1cc(-c2cnn(CCO)c2)c2c(c1)C(O)(C(F)(F)F)c1ccccc1-2)N1CCC1 (stereo not shown) = Condition met
• CC(=O)N(C)C1CCN(C(=O)c2ccc3c(c2)C(O)(C(F)(F)F)c2ccccc2-3)C1 (stereo not shown) = Condition met
• CCn1cc(-c2cc(CO)c3c(c2)C(O)(C(F)(F)F)c2ccccc2-3)cn1 (single isomer, unassigned) [compound 629] = Condition met
• O=C(COc1ccc2c(c1)C(O)(C(F)(F)F)c1ccccc1-2)N1CCC(O)CC1 (stereo not shown) = Condition met
• CCn1cc(-c2cc(OCCCC(=O)O)cc3c2-c2ccccc2C3(O)C(F)(F)F)cn1 (single isomer, unassigned) = Condition met
• CN(C)CCOc1ccc2c(c1)C(O)(C(F)(F)F)c1ccccc1-2 (stereo not shown) = Condition not met
• COc1cc(-c2cnn(CCCC(=O)O)c2)c2c(c1)C(O)(C(F)(F)F)c1ccccc1-2 (single isomer, unassigned) = Condition met
• CC(C)C(=O)c1cccc2c1-c1ccccc1C2(O)C(F)(F)F (stereo not shown) = Condition not met
• Cn1cc(-c2cc(N3CCOCC3)cc3c2-c2ccccc2C3(O)C(F)(F)F)cn1 (stereo not shown) = Condition met
• NC(=O)c1cc(-c2cnn(CCO)c2)cc2c1-c1ccccc1C2(O)C(F)(F)F (stereo not shown) = Condition met

* * *

- measured_target: human PDHK2 (hPDHK2) (Homo sapiens (Human))
- method_description: Inhibitory action of PDHK activity in vitro (kinase reaction, residual PDH activity measured)
- Type: biochemical
- stated_conditions: PDHK inhibitory activity, class symbol of IC50
pIC50: −log10 of the molar value.
endpoint_name: pIC50

* CNC(=O)CCCCOc1ccc2c(c1)C(O)(C(F)(F)F)c1ccccc1-2 (stereo not drawn) | 6.00 to 7.00
* NC(=O)Cc1ccc2c(c1)C(O)(C(F)(F)F)c1ccccc1-2 (stereo not drawn) | < 6.00
* CCOc1ccc2c(c1)-c1ccccc1C2(O)C(F)(F)F (stereo not drawn) | < 6.00
* Cc1cc(-c2cnn(CCO)c2)c2c(c1)C(O)(C(F)(F)F)c1ccccc1-2 (stereo not drawn) | > 7.00
* CN(C)C(=O)c1cccc2c1-c1ccccc1C2(O)C(F)(F)F (stereo not drawn) | < 6.00
* Cc1cc(-c2ccc3c(c2)C(O)(C(F)(F)F)c2ccccc2-3)ccn1 (stereo not drawn) | 6.00 to 7.00
* CN(C(=O)c1ccc2c(c1)C(O)(C(F)(F)F)c1ccccc1-2)C1CCC1 (stereo not drawn) | < 6.00
* O=C(c1cc(Br)c2c(c1)C(O)(C(F)(F)F)c1ccccc1-2)N1CCC1 (stereo not drawn) | > 7.00
* O=C(O)CCCOc1cc(-c2cnn(CCO)c2)c2c(c1)C(O)(C(F)(F)F)c1ccccc1-2 (stereo not drawn) | > 7.00

The values you see were collected from patent US8871934B2.
